Tested on: adult S. mansoni
Assay Comment: Phenotypic screen of adult S. mansoni worms, severity scores and descriptors
Format: cell-based, Schistosoma mansoni
Experimental Context: adult S. mansoni, 10 µM, 1 h; phenotypic descriptors
Experimental Readout: Descriptors (10 µM) 1 h

[[record]]
molecule = "O=S(=O)(c1ccc(-c2ccc3nccc(NCCN4CCCC4)c3c2)cc1)N1CCOCC1 [S3e]"
val = "none"

[[record]]
molecule = "Cc1cnc(Nc2ccnc3cc(-c4cnc(N5CCCN(C)CC5)nc4)ccc23)cn1 [5b]"
val = "none"

[[record]]
molecule = "CN(CCNc1ncc(-c2ccc3c(Nc4cnccn4)ccnc3c2)cn1)C(=O)OC(C)(C)C [3e]"
val = "none"

